For each record, write down the corresponding apparent KD of MS2 coat protein.
system: MS2 coat protein; assay: apparent KD of MS2 coat protein; higher = weaker reporter binding; settings: Eterna round: R107; input ligand: theophylline 20 uM
One number for each entry, in nM.

GAUGAACUAUUCGAUACCAGACCACAUGAGGAUCACCCAUGUGUGUUUCGUCCUUAGCCGGUCCCUUGGCAGCGAAUAGUUUAUC [#28 Exclusion-TheophyllineB]
30.3
AAGAUAAGUACUGAUACCAGAGACAUGAGGAUCACCCAUGUCAAAUAAUAAUACCUCAGACUCCCUUGGCAGCAGGAUAAAUGAG [Exclusion Theophylline B GF1]
19.9
CCUGAUGAGUCGGCCGCCACUCCAGUUGUAUUACAGGUUUUCGUAGACAUGAGGAUCACCCAUGUGAGGACCGGGACACACACAG [theeternabot_exclusion_MS2_Trp_B_21]
23.8

Switching to the query record.
stdin: Please report apparent KD of MS2 coat protein with MS2 coat protein for item AUAAAAGGGUUAUAUAGAUUUAGGUCCAGUCGAGGACCGGUACGGCCGCCACUCGUACUGAAAUACAUGAGGAUCACCCAUGUUA [JR_SSTryptoA_Sub006] .
stdout: 25.8
